Procedure Text: Inhibition of [3H]epibatidine binding at the alpha beta nicotinic AChR in male rat cerebral cortex
Type: tissue-based
Some molecules, each annotated with its measured pKi.
Entry type: numeric. Quantity: pKi, the -log10 of concentration in molar units.

Req: Identify pKi associated with the molecule Nc1ncc(C2CC3CCC2N3)cc1-c1ccccc1 (configuration not stated)
Resp: 9.48

Req: Identify pKi associated with the molecule Fc1ncc(C2CC3CCC2N3)cc1-c1ccccc1 (single isomer, unassigned; (+))
Resp: 9.62

Req: Identify pKi associated with the molecule CN(C)c1ncc(C2CC3CCC2N3)cc1-c1ccccc1 (configuration not stated)
Resp: 7.24

Req: Identify pKi associated with the molecule Fc1ccc(C2CC3CCC2N3)cn1 (configuration not stated)
Resp: 10.57

Req: Identify pKi associated with the molecule Fc1ncc(C2CC3CCC2N3)cc1-c1ccccc1 (stereo in doubt; (-)-5a)
Resp: 9.59

Req: Identify pKi associated with the molecule Nc1ccc(C2CC3CCC2N3)cn1 (configuration not stated)
Resp: 8.89

Req: Identify pKi associated with the molecule Clc1ncc(C2CC3CCC2N3)cc1-c1ccccc1 (configuration not stated)
Resp: 10.68
